# testedTarget: NK-1 (Homo sapiens, UniProt P25103)
# Construct: 30 ul/well of a 2×U373 membrane preparation; endogenous in cells; host or cells: U373 cells (crude membrane preparation)
# Sequence (P25103 whole entry): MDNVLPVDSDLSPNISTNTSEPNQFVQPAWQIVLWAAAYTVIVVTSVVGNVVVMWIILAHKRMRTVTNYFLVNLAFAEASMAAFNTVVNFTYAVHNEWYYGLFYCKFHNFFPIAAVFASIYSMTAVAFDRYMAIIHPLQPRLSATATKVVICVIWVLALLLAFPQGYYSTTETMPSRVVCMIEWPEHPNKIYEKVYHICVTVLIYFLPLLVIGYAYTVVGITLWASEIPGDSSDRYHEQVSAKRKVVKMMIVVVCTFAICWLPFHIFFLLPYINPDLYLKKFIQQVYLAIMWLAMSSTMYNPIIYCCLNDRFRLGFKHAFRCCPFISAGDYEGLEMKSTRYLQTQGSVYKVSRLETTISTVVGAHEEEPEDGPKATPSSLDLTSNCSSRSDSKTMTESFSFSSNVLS
# assayComment: NK1 radioligand binding assay
# experimentalSetup: U373 membrane preparation, [125I]Substance P; Table 1
pIC50: −log10 of the molar value.
Consider the following compounds; for each one, report its pIC50.

// output pIC50; input CN1CCC(COCc2cc(C#N)cc3cccnc23)(c2ccc(F)cc2)CC1 ; system NK-1 (Homo sapiens, UniProt P25103)
< 6.52

Give pIC50 for this entry on NK-1 (Homo sapiens, UniProt P25103): CC(OCC1(c2ccc(F)cc2F)CCNCC1)c1cc(C(F)(F)F)cc2cccnc12 (stereo not drawn)
7.00 to 11.00

Find the measured pIC50 of FC(F)(F)c1ccc2ccc(COCC3(c4ccccc4)CCNCC3)nc2c1 with NK-1 (Homo sapiens, UniProt P25103) as test system.
< 6.52

Print NK-1 (Homo sapiens, UniProt P25103) pIC50 for Cc1cc(C(C)OCC2(c3ccccc3)CCN(C)CC2)c2ncccc2c1 (stereo not drawn) .
7.00 to 11.00

For NK-1 (Homo sapiens, UniProt P25103), give pIC50 of the listed compound: Cc1ccc2cc(COCC3(c4ccccc4)CCN(C)CC3)ccc2n1
< 6.52

Return reported pIC50 for target or system NK-1 (Homo sapiens, UniProt P25103), item CN1CCC(COCc2cc(Br)cc3cccnc23)(c2ccccc2)CC1 .
7.00 to 11.00

Look up and report measured pIC50 (NK-1 (Homo sapiens, UniProt P25103)) for the following compound: FC(F)(F)c1cccc2nc(COCC3(c4ccccc4)CCNCC3)ccc12
< 6.52

Look up NK-1 (Homo sapiens, UniProt P25103) data: pIC50 of Cc1cc(C(C)OCC2(c3ccc(F)cc3)CCN(C)CC2)c2[nH]c(=O)ccc2c1 (stereo not drawn) , then report it.
7.00 to 11.00

Provide NK-1 (Homo sapiens, UniProt P25103) pIC50 reading for CC(OCC1(c2ccc(F)cc2)CCNCC1)c1cc(C(F)(F)F)cc2cccnc12 (stereo not drawn) .
7.00 to 11.00

----------
# testedTarget: NK-1 (Homo sapiens, UniProt P25103)
# Construct: 30 ul/well of a 2×U373 membrane preparation; endogenous in cells; host or cells: U373 cells (crude membrane preparation)
# assayComment: NK1 radioligand binding assay
# experimentalSetup: U373 membrane preparation, [125I]Substance P; Table 1
endpoint: IC50

Let me know recorded IC50 for N#Cc1cc(COCC2(c3ccccc3)CCNCC2)nc2ccccc12 [Example 14] , thanks.
> 300 nM

Give the measured IC50 for Brc1cc(COCC2(c3ccccc3)CCNCC2)nc2ccccc12 [Example 13]
100 to 300 nM

// Input: CN(C)c1cc(COCC2(c3ccccc3)CCNCC2)nc2ccccc12 [Example 16] . Output its IC50 only.
> 300 nM

Input CC(OCC1(c2ccc(F)cc2)CCN(C)CC1)c1cc(C(F)(F)F)cc2cccnc12 (centres unmarked) [Example 34] , output reported IC50.
0.01 to 100 nM

Give the reported IC50 for this molecule. CC(OCC1(c2ccccc2)CCN(C)CC1)c1cc(C(F)(F)F)cc2cccnc12 (centres unmarked) [Example 36]
0.01 to 100 nM
